Experiment: yeast display, Sf9 membrane polyspecificity reagent, FACS + sequencing; frameworks hold sequencing errors
assay_metric: polyreactivity (PSR sort gate)

1) QVQLVESGGGLVQAGGSLRLSCAASGRTFGAYAMGWYRQAPGKERELVATITVSGGSTYYADSVKGRFTISRDNAMNTVSLQLNSLKPEDTAVYYCATEFYEEYWGQGTQVTVSS | low polyreactivity
2) QVQLEESGGGLVQAGGSLRLSCAASGFTFVPYAMGWYRQAPGKERELVARITWSGGSTYYADSVKGRFTISRDNAKNTVYLQMNSLKPEDTAVYYCNLDTRYPGYWRVFAKNNYWGQGTQVTVSS | high polyreactivity
3) QVQLVESGGGLVQAGGSLRLSCAASGLTFYYYAMGWYRQSPGKEREFVAAISRSGGTTYYADSVKGRFTISRDNAKNTVYLQMNSLKPEDTAVYYCAKASRYWSLYYWGQGTQVTVSS | high polyreactivity
4) QVQLVESGGGLVQAGGSLRLSCADSGSIFGVYTRGWYSQAPGKERELVAAISGSGGSTYYADSVMGRFTISRDNAKNTVYFQMNSLIPEDTGVDYCATRFPNIPPYDSWGQGTQVTVSS | low polyreactivity

For every item below, please supply its polyreactivity (PSR sort gate).
1. QVQLVESGGGIVQAGGSLRLSCAASGSTFYVYALGWYRQAPGKERELVAAINFNGGGTYYADSVKGRFTISRDNAKNTVYLQMNRLKPEDTAVYYCNAEDDYTYDRSFGGYKYDYWGQGTQVTVSS
2. QVQLVESGGGLVQAGGSLRLSCAASGITFYYYAMGWYRQAPGKERELVASIDNSGGSTYYADSVKGRFTISRDNEKNTVYLQMHSLKPEDTAVYFCAAVSRYYFLGVAFLDDYWGQGTLVTVSS

low polyreactivity
high polyreactivity

For every item below, please supply its polyreactivity (PSR sort gate).
1. QVQLVESGGGLVQAGGSLRLSCAASGRTFDFYVMGWYRHAPGKERELVAAISSGGSTNYADSVKGRFTISRDNAKYTVYLQMNSLKPEDTAVYYCAADPSGDYWGQGTQVTVSS
2. QVQLVESGGGLVQAGGSLRLSCAASGTFYRYAMGWYRQAPGKERELVAAIDKTGDTTYYADSVKGRFTISRDNAKNTVYLQMNSLKPEDTAVYYCAATGYPRFGYWGQGTQVTVSS
3. QVQLVESGRGLVQAGGSLRLSCAASGRTFNWYAKGWYRQAPGKERELVAAISSGGSTYYADSVKGRFTISRDNAKNTVYLQMNSLKPEDTAVYYCAAVTPSGAHRSAYHPISDYWGQGTQVTVSS
4. QVHPVESGGGLVQAGGSIRLSCAASGRIFRRYTMGWYRQAPGHERELVAAITRGGGSTSYADSVKGRFTISRDNAKNTVYLQMNSLKPEDTAVYYCAAQARTSTIRGYDYWGQGTQVTVSS
5. QVQLVESGGGLVQAGGSLRLSCAASGRIFSYYAMGWYRQAPGKERELVAAISSSGGSTYYADSVKGRFTISRDNAKNTVYLQMNSLKPEDTAVYYCAKLQYGFGRYGYWGQGTQVTVSS
6. QVQLVESGGGLVQAGGSLRLSCAASGSSLNLNAMGWYRQAPGKERELVAAIRWGGGSTYYADSVKGRFTISRDNAKNTDYLQMNSLKPEDTAVYYCAKAYHLGLGYRFDYWGQGTQVTVSS
7. QVQLVESGGGLVQAGGSLRLSCAASGNIFLYYAMGWYRQAPGKERELVARIDSGGSTYYADSVKGRFTISRDNAKNTVYLQMNSLKPEDTAVYYCATDEGTVGGQQLRPLMDYWGQGTQVTVSS

["low polyreactivity", "high polyreactivity", "low polyreactivity", "high polyreactivity", "high polyreactivity", "high polyreactivity", "low polyreactivity"]

For every item below, please supply its polyreactivity (PSR sort gate).
1. QVQLVESGGGLVQAGGILRLSCAASGSTFRLNAMVWYRQEPGKERELVASIRWSVGITYYADSVKGRFTISLDNSKNTFYLQMNSLKPEDTAVYYCANGDTNWRYYYWGQGTQVTVSS
2. QFQLVESGGGLVQAGGSLRLSCAASGRTFIYYSMGWYRQAPGKERELVAAITRSGGSTNYADSVKGRFTISRDNSKNTVYIQMNSLKPEDTAVYYCAARFYGRRCIYGYWGQGTQVTVSS
3. QVQLVESGGGLVQAGGSLRLSCAASGMTFDYYAMGWYRQAPGKERELVAAIRSGGSTNYADSVKGRFTISRDNAKNTVYLQMNSLKPEDTAVYYCAAVRYFPWYDYWGQGTQVTVSS
4. QVQLQESGGGLVQAGGSLRLSSAASGTIFRFRYMGWHRQAPGKERELVAGINGGTTTYYADSVIGRFTISRDNAKNTVYLQMNSLKPDDTAVYNCAAGASRLTYYDYWGQGTQVTVSS
5. QVQLVESGGGLVQAGGSLRLSCAASGSTFIGYTMGWYRQAPGKERELVAAISTSGARTYYADSVKGRFTISRDNAKNTVYLQMNSLKPEDTAVYYCAARAIYKSKYDYWGQGTQVTVSS

1. high polyreactivity
2. high polyreactivity
3. high polyreactivity
4. low polyreactivity
5. high polyreactivity

For every item below, please supply its polyreactivity (PSR sort gate).
1. QVQLVESGGGLVQAGGSLRLSCAASGRTFITYAMGWYRQAPGKERELVAAISWNGGTTYYADSVKGRFTISRDNAKNTVYLQMNSLKPEDTAVYYCAAYRWYSAARMGYWGQGTQVTVSS
2. QVQLVESGGGLVQAGGSLRLSCAASGSIFYWYAMGWYRQAPGKERELVAAISSSGSTNYADSVKGRFTISRDNAKNTVYLQMNSLKPEDTAVYYCAAYRTGYNGWGYGYWGQGTQVTVSS
3. QVQLVESGGGLVQAGGSLRLSCAASGRIFSYYAMGWYRQAPGKERELVAAISRSGGRTYYADSVKGRFTISRDNAKNTVYLQMNSLKPEDTAVYYCAALQRDYSGRYPVSMYYWGQGTQVTVSS

["high polyreactivity", "high polyreactivity", "high polyreactivity"]

----------
Test: yeast display, Sf9 membrane polyspecificity reagent, FACS + sequencing; frameworks hold sequencing errors
assay_metric: polyreactivity (PSR sort gate)

1. QVQRVESGGGLVQAGGRLRLSCAASGSTFLYNAMGWYRQAPGKERELVATISSGGGSTNYADSVKGRFTNSRDNAKNTVYLPMNSLKPEDTAVYYCAVEGYDSYKDDYWGQGTQVTVSS | low polyreactivity
2. QVQLVESGGGLVQAGGSLRLSCAASGFTFDSNAMGWYRQAPGKERELVAAISASGDSTYYADSVKGRFTISRDNAKNTVYLQMNSLKPEDTAVYYCAADRFYGGWRFDHWGQGTQVTVSS | low polyreactivity

----------
Assay: yeast display, Sf9 membrane polyspecificity reagent, FACS + sequencing; frameworks hold sequencing errors
assay_metric: polyreactivity (PSR sort gate)

Observe how each entry below is paired with its result.
1. QVQLVESGGGLLQAGGSLRLSCAASGFTFTTYAMGWYRQAPGKERELVAAITRRGGSTYYADSVKGRFTISRDNAKNTVYFQMNSLKPEDTAVYYCAAGGGWGLDYWGQGTQVTVSW | high polyreactivity
2. QVQLVESGGGLVQAGGSLRLICAASGGIFWYYAMGWYRQAPGKERELVATISSGGSTKYADSVKGRFTISRDNAKNTVYLQMNSLKPEDTAVYYCNKVFPNLYIYVVRGLIEMDYWGQGTQVTVSS | low polyreactivity
3. QVQLVESGGGLVQAGGSLRLSCAASGIIFRYYAMGLYRQAPGKERELVAAISQGGGSTYYADSVKGRFTISRDNAKYTVYLPMKTLKPEDTAVYYCNTGRRHGLTQGGDYWGQGTQVTVSS | high polyreactivity
4. HVQLVESGGGLVQAGGSLRLSCAASGSTFAGNAMGWYRQAPGKEWELVAAIDSSTGSTYYADSVKGRFTISRDNAKNTVNLQMNSLKPEDTAVYYCNKTSFLVKLDYWGQGTQVTVSS | low polyreactivity
5. QVQLVESGGGLVQAGGSLRLSCAASGSIFYYYTMGWYRQSPGKERELVAAIRWSSGTTYYADSVKGRFTISRDKAKNTVYLQINSLKPEDTAVYYCAAGGHARTWYAYYYWGQGTQVTVSS | low polyreactivity

For every item below, please supply its polyreactivity (PSR sort gate).
1. QVQLVESGGGLVQAGGSLRLSCAASGSIIYWYAMGWYRQAPGKERELVADISRGGITYYADSVKGRFTISRDNAKNTVYLQMNSLKPEDTAVYYCSKTHYGVQRLDSWGQGTQVTVSS
2. QVQLVESGGRLVQAGGSLRLSCAASGRIFTYNAMGWYTQAPGKERELVAGITRRGGSTYYADSVKGRFTISRDNAKNTVYLQMNSLKPEDTAVYYCAATYPNARRYEYWGQGTQVTVSS
3. QVQLVESGGGLVKAGGSLRLSCAASGFIFNGYAMGWYRQAPGKESELVAAINSGGITHYADSVKGRFTISRDNAKNTVYLQMNSLKPEDTAVYYCAAVRTGYYRQYDYWGQGTQVTVSS
4. QVQLVESAGGLVQAGGSLRLSCPASGRTFFPYAMGWYRQPPGQEREFVAAITNTDDSTYYADSVKGRFTISRDNAKNTVYLQMNSLKPEDTAVYYCNAGDTQIRFYYWGQGSQVTVSS
5. QVQLVESGGGLVQAGGSLRLSCAASGRIFSVYAMVWYRQAPGKEREFVAAITKGGVGTYYADSVKGRFTISRDNAKNTVYLQMNSLKPEDTAVYYFAARHYYGADRYYSWGQGTQVTVSS
6. QVQLVESGGGLVQAGGSLRLSCAASGFTYDSYAMRWYRQAPGKERELVAAITRRGGSTYYADSVKGRFTISRDNAKNTVYLQMNSLKPEDTAVYYCATLRLRSLGQRNYWGQGTQVTVSS

1. low polyreactivity
2. high polyreactivity
3. high polyreactivity
4. low polyreactivity
5. high polyreactivity
6. high polyreactivity
